Each entry below lists one item and its recorded fraction unbound value.
tested on: HSA and AGP (24:1); experiment: TRANSILXL PPB plasma protein binding assay; conditions: human, TRANSILXL PPB assay, HSA and AGP in a ratio 24:1
No unit in the answer, only the number.

INPUT: Bench note: what fraction unbound did CC1NC(NCCCCCCNS(=O)(=O)c2c(Cl)ccc3ccccc23)=Nc2ccccc21 (stereo not drawn) show?
OUTPUT: 0.001

INPUT: Bench note: what fraction unbound did CC1NC(NCCCCCCNS(=O)(=O)c2cccc3ccccc23)=Nc2ccccc21 (stereo not drawn) show?
OUTPUT: 0.003

INPUT: Bench note: what fraction unbound did O=S1(=O)c2cccc3cccc(c23)N1CCCCCCNC1=Nc2ccccc2CN1 show?
OUTPUT: 0.004

---

target: human serum albumin (HSA) (Homo sapiens, UniProt P02768); construct: purchased; experiment: HSA binding by biochromatography (HSA column); format: in vitro ADME; details: HSA column
Sequence (P02768 25-609): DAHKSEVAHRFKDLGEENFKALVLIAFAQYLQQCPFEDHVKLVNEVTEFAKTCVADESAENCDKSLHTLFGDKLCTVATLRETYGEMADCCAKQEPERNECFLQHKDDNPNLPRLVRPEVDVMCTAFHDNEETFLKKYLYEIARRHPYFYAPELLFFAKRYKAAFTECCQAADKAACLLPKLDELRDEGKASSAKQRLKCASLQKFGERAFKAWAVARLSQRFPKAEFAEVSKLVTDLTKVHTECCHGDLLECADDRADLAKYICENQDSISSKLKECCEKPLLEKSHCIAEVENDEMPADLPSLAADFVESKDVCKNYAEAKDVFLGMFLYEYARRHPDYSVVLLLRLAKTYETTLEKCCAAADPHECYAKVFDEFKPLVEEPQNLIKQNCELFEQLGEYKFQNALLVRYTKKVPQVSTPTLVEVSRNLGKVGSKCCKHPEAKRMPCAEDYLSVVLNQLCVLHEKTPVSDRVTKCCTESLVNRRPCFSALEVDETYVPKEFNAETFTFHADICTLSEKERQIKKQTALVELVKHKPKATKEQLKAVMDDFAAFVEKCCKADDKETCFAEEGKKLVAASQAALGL
measure: %HSA (%)
Output spec: scalar in %, unitless text.

Worked cases, %HSA given:
molecule: O=S(=O)(NCCNC1=Nc2ccccc2CN1)c1cccc2ccccc12 [PP 4]
systemUnderTest: human serum albumin (HSA) (Homo sapiens, UniProt P02768)
unit: %
%HSA: 94.8
//
molecule: CC1NC(NCCCCCCNS(=O)(=O)c2cccc3ccccc23)=Nc2cccc(F)c21 (stereo not drawn) [PP 11]
systemUnderTest: human serum albumin (HSA) (Homo sapiens, UniProt P02768)
unit: %
%HSA: 99.2
//
molecule: O=S(=O)(c1cccc2ccccc12)N1CCN(CCNC2=Nc3ccccc3CN2)CC1 [PP 6]
systemUnderTest: human serum albumin (HSA) (Homo sapiens, UniProt P02768)
unit: %
%HSA: 97.2
//
molecule: CC1NC(NCCCCCCNS(=O)(=O)c2cccc3ccccc23)=Nc2c(Cl)cc(Cl)cc21 (stereo not drawn) [PP 12]
systemUnderTest: human serum albumin (HSA) (Homo sapiens, UniProt P02768)
unit: %
%HSA: 99.7
//
molecule: O=S(=O)(NCCNc1ncc2ccccc2n1)c1cccc2ccccc12 [PP 14]
systemUnderTest: human serum albumin (HSA) (Homo sapiens, UniProt P02768)
unit: %
%HSA: 95.0
//
molecule: O=S1(=O)c2cccc3cccc(c23)N1CCCCCCNC1=Nc2ccccc2CN1 [PP 24]
systemUnderTest: human serum albumin (HSA) (Homo sapiens, UniProt P02768)
unit: %
%HSA: 98.8
//
molecule: CC1NC(NCCCCCCNS(=O)(=O)c2cccc3ccccc23)=Nc2ccccc21 (stereo not drawn) [PP 10]
systemUnderTest: human serum albumin (HSA) (Homo sapiens, UniProt P02768)
unit: %
%HSA: 97.7

Please find the next molecule below.
INPUT: Bench note: what %HSA did O=S(=O)(NCCCCCCNc1ncc2ccccc2n1)c1cccc2ccccc12 [PP 15] show?
OUTPUT: 97.8

---

target: 5-HT1A (Homo sapiens, UniProt P08908); assay: Functional cAMP assay (LANCE Ultra), 5-HT1A; details: Table 3, unit inferred; cAMP, agonist mode
Sequence (P08908 whole entry, species assumed): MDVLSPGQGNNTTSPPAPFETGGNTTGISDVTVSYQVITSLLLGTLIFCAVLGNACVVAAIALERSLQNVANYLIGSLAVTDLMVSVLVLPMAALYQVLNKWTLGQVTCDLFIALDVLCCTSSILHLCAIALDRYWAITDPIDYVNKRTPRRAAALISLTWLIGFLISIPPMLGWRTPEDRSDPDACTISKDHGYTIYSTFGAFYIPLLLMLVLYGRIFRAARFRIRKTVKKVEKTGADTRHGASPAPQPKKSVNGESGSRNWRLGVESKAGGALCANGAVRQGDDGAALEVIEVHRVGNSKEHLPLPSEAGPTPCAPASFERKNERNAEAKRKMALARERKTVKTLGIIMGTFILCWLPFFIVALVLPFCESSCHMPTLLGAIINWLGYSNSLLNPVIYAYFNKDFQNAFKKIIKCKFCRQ
Each entry below lists one item and its recorded EC50 value.
Output spec: scalar in nM, unitless text.

INPUT: Bench note: what EC50 did O=S(=O)(c1cccc2ccccc12)N1CCN(CCNC2=Nc3ccccc3CN2)CC1 show?
OUTPUT: 375

INPUT: Bench note: what EC50 did CC1NC(NCCCCCCNS(=O)(=O)c2c(Cl)ccc3ccccc23)=Nc2ccccc21 (centres unmarked) show?
OUTPUT: 1540

---

assay: Affinity to phospholipids, CHI IAM (Valko protocol); type: physicochemical; details: IAM column
Each entry below lists one item and its recorded CHI IAM value.
No unit in the answer, only the number.

Worked cases, CHI IAM given:
compound: CC1NC(NCCCCCCNS(=O)(=O)c2cccc3ccccc23)=Nc2ccccc21 (stereo not drawn)
readoutValue: 56.4
--
compound: O=S(=O)(c1cccc2ccccc12)N1CCN(CCNC2=Nc3ccccc3CN2)CC1
readoutValue: 50.9
--
compound: CC1NC(NCCCCCCNS(=O)(=O)c2cccc3ccccc23)=Nc2c(Cl)cc(Cl)cc21 (stereo not drawn)
readoutValue: 59.4
--
compound: O=S(=O)(NCCNc1ncc2ccccc2n1)c1cccc2ccccc12
readoutValue: 37.2
--
compound: O=S1(=O)c2cccc3cccc(c23)N1CCCCCCNC1=Nc2ccccc2CN1
readoutValue: 56.5

INPUT: Bench note: what CHI IAM did O=S(=O)(NCCCCCCNc1ncc2ccccc2n1)c1cccc2ccccc12 show?
OUTPUT: 45.8

INPUT: Bench note: what CHI IAM did O=S(=O)(NCCNC1=Nc2ccccc2CN1)c1cccc2ccccc12 show?
OUTPUT: 50.2

INPUT: Bench note: what CHI IAM did CC1NC(NCCCCCCNS(=O)(=O)c2cccc3ccccc23)=Nc2cccc(F)c21 (stereo not drawn) show?
OUTPUT: 60.1

INPUT: Bench note: what CHI IAM did CC1NC(NCCCCCCNS(=O)(=O)c2c(Cl)ccc3ccccc23)=Nc2ccccc21 (stereo not drawn) show?
OUTPUT: 59.9

---

Measured pKi (5-HT7 (Homo sapiens, UniProt P34969))
Reminder that pKi is minus the log10 of a molar concentration.

compound: O=S(=O)(NCCCCCCNc1ncc2ccccc2n1)c1cccc2ccccc12
pKi: 5.81
//
compound: CC1NC(NCCCCCCNS(=O)(=O)c2cccc3ccccc23)=Nc2ccccc21 (stereo not drawn)
pKi: 6.72

Please find the next compound below.
INPUT: Form: Entry = O=S(=O)(c1cccc2ccccc12)N1CCN(CCNC2=Nc3ccccc3CN2)CC1 | System = 5-HT7 (Homo sapiens, UniProt P34969) | pKi = ____
OUTPUT: 5.62

---

target: 5-HT1A (Homo sapiens, UniProt P08908)
measure: pKi
Reminder that pKi is minus the log10 of a molar concentration.

Worked cases, pKi given:
molecule: O=S(=O)(c1cccc2ccccc12)N1CCN(CCNC2=Nc3ccccc3CN2)CC1
measure: pKi
readoutValue: 7.38

molecule: CC1NC(NCCCCCCNS(=O)(=O)c2cccc3ccccc23)=Nc2ccccc21 (stereo not shown)
measure: pKi
readoutValue: 6.78

molecule: CC1NC(NCCCCCCNS(=O)(=O)c2c(Cl)ccc3ccccc23)=Nc2ccccc21 (stereo not shown)
measure: pKi
readoutValue: 7.72

Please find the next molecule below.
INPUT: Form: Entry = O=S(=O)(NCCCCCCNc1ncc2ccccc2n1)c1cccc2ccccc12 | System = 5-HT1A (Homo sapiens, UniProt P08908) | pKi = ____
OUTPUT: 5.15

---

target: 5-HT6 (Homo sapiens, UniProt P50406)
Sequence (P50406 whole entry): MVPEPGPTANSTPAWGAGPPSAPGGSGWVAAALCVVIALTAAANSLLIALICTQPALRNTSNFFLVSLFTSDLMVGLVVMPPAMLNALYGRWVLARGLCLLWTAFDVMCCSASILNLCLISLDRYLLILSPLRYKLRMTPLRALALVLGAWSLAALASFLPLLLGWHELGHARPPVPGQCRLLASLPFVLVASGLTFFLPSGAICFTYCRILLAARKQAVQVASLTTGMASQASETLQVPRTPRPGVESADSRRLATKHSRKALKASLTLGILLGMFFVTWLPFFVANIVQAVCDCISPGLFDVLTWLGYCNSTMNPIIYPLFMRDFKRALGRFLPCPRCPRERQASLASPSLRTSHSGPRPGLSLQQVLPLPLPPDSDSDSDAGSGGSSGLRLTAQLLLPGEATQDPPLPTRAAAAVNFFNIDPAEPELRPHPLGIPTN
Assign labels as follows, please: label 1 for Ki below 1000 nM; label 0 for Ki equal to or exceeding 1000 nM.

molecule: O=S(=O)(NCCCCCCNC1=NCc2ccccc2N1)c1ccc2ccccc2c1
discreteLabel: label 1

molecule: O=S(=O)(NCCCCNC1=NCc2ccccc2N1)c1ccc2ccccc2c1
discreteLabel: label 1

molecule: O=S(=O)(NCCNc1ncc2ccccc2n1)c1cccc2ccccc12
discreteLabel: label 0

INPUT: I'd appreciate it if you could check whether CC1NC(NCCNS(=O)(=O)c2cccc3ccccc23)=Nc2ccccc21 (centres unmarked) has Ki smaller than 1000 nM.
OUTPUT: label 0

INPUT: I'd appreciate it if you could check whether c1ccc(CNc2nc3ccccc3[nH]2)cc1 has Ki smaller than 1000 nM.
OUTPUT: label 0

INPUT: I'd appreciate it if you could check whether O=S(=O)(NCCCCCCNc1ncc2ccccc2n1)c1cccc2ccccc12 has Ki smaller than 1000 nM.
OUTPUT: label 1

INPUT: I'd appreciate it if you could check whether CC1NC(NCCCCCCNS(=O)(=O)c2cccc3ccccc23)=Nc2ccccc21 (centres unmarked) has Ki smaller than 1000 nM.
OUTPUT: label 1

INPUT: I'd appreciate it if you could check whether CC1NC(NCCCCCCNS(=O)(=O)c2cccc3ccccc23)=Nc2cccc(F)c21 (centres unmarked) has Ki smaller than 1000 nM.
OUTPUT: label 1

INPUT: I'd appreciate it if you could check whether O=S(=O)(NCCCCCCNC1=Nc2ccccc2CN1)c1cccc2ccccc12 has Ki smaller than 1000 nM.
OUTPUT: label 1

INPUT: I'd appreciate it if you could check whether O=S(=O)(NCCCCCCNc1ncccn1)c1cccc2ccccc12 has Ki smaller than 1000 nM.
OUTPUT: label 0

---

test: in vitro; conditions: PAMPA
Each entry below lists one item and its recorded Papp value.
Record the result as a number with its unit.

compound: O=S1(=O)c2cccc3cccc(c23)N1CCCCCCNC1=Nc2ccccc2CN1 [PP 24]
Papp: 0.73 ×10⁻⁶ cm/s

compound: CC1NC(NCCCCCCNS(=O)(=O)c2cccc3ccccc23)=Nc2ccccc21 (stereo not shown) [PP 10]
Papp: 0.03 ×10⁻⁶ cm/s

compound: O=S(=O)(NCCCCCCNc1ncc2ccccc2n1)c1cccc2ccccc12 [PP 15]
Papp: 0.13 ×10⁻⁶ cm/s

Please find the next compound below.
INPUT: Bench note: what Papp did CC1NC(NCCCCCCNS(=O)(=O)c2c(Cl)ccc3ccccc23)=Nc2ccccc21 (stereo not shown) [PP 13] show?
OUTPUT: 0.19 ×10⁻⁶ cm/s
